Provenance of the data: PubChem BioAssay (NCI)

- System: HCT-116 colon
- METHOD: NCI-60 one-dose screen, 48 h (100 = growth as untreated, 0 = no growth, -100 = all killed)
- EXPERIMENTAL SETUP: 10 µM
- Experimental: Growth inhibition of the HCT-116 human tumor cell line is measured as a screen for anti-cancer activity. Cells are grown in 96 well plates and exposed to the test compound for 48 hours. Compounds are tested at a single concentration, which is 10^-5 M for most compounds. The reported endpoint is percent growth (GI% or GIPRCNT), where numbers from 0 - 100% represent growth inhibition, and numbers from -100% - 0 represent cell death. For example, a value of 40 represents 60% growth inhibition. […]
The panel holds about 83,000 compounds, 20% with a hit somewhere; the sample as a whole holds those more often.
Classification field: Met = growth at or over 70%; Not met = growth under 70%.

1) COc1cc(/C=C2\CCCC3=C2N=C2SC(C)=CN2C3c2cc(OC)c(OC)c(OC)c2)cc(OC)c1OC (configuration not stated) | Not met
2) Oc1ccc(/C=N/N=C2c3ccccc3-c3ccccc32)c(O)c1 | Not met
3) CC(=O)COc1ccc(Cl)cc1Cl | Met
4) O=C1/C=C/[C@@H](O)[C@@H]2C[C@@H](O)C[C@H]2/C=C/CCC[C@H](CCc2ccc(C(F)(F)F)cc2)O1 | Not met
5) CCOC(=O)c1cocc1C(=O)O | Met
6) CC(C)(C)OC(=O)N1CCc2c(sc3ncnc(N/N=C/c4cccc5ccccc45)c23)C1 | Not met
7) CN1CCN(c2cc3c(cc2F)c(=O)c(C(=O)O)cn3-c2ccc(F)cc2)CC1 | Met
8) COc1cc2ncnc(NC3CCC(O)CC3)c2cc1OC (configuration not stated) | Met
9) COc1cc2c3c(n([C@H]4CCOC4)c(=O)c2cc1OC)-c1cc2c(cc1C3=O)OCO2 | Not met
10) c1cnc2[nH]cc(-c3nc(-c4ccsc4)cs3)c2c1 | Met
11) CC(C)(C)c1ccc(S(=O)(=O)Oc2ccc(NC(=O)C3CCCCC3)cc2)cc1 | Not met
12) COc1ccc(-c2nnc(SCC(=O)Nc3ccc(C(=O)/C=C/c4ccccc4)cc3)n2-c2ccccc2)cc1OC | Not met

* * *

- System: CCRF-CEM leukemia
- METHOD: NCI-60 one-dose screen, 48 h (100 = growth as untreated, 0 = no growth, -100 = all killed)
- EXPERIMENTAL SETUP: 10 µM
About 83,000 compounds went through this panel and 20% of them were active in at least one assay; those are over-represented in the sample as a whole.
Listed next: entries and their corresponding growth.
MEASURED PROPERTY: growth (%)

1) COc1ccc2cc(-c3nc4ccccc4s3)c(Cl)nc2c1OC | 104
2) O=C1/C(=C/c2ccc3c(c2)OCO3)SC(=S)N1C1c2ccccc2Oc2ccccc21 | 86.7
3) Cc1cn(-c2cccc(NC(=O)c3ccc(C)c(Nc4nccc(-c5cccnc5)n4)c3)c2)cn1 | 25
4) CC(C)[N+]1(C)C2CC[C@@H]1CC(OC(=O)C(CO)c1ccccc1)C2 (stereo not given in full) | 92.3
5) O=c1cn[nH]c2ccc(Br)cc12 | 96.1
6) COc1ccc(C(=O)COc2cccc(/C=C3\Cc4ccccc4C3=O)c2)cc1 | 80.8
7) NS(=O)(=O)Oc1ccc(NC(=O)C2CCCCCC2)cc1 | 89.4
8) COc1cc(C(=O)n2nc(-c3cc(OC)c(OC)c(OC)c3)nc2N)cc(OC)c1OC | 96.7
9) COc1ccc(-c2nn(-c3cccc(Cl)c3)cc2-c2nc(N)[nH]c(=O)c2C#N)cc1 | 61.6
10) CN1CCN(C2=Nc3ccccc3Oc3ccc(Cl)cc32)CC1 | 99.6
11) CCN(CC)CCOC(=O)c1cc(OCc2ccccc2)c(OCc2ccccc2)c(OCc2ccccc2)c1 | 37
12) O=C1c2ccccc2C(=O)c2c1ccc1c(=O)n(-c3ccccc3C(F)(F)F)nnc21 | 15
13) COc1ccc(C(=O)c2cc3c(OC)c(OC)c(OC)cc3[nH]2)cc1 | 42.8
14) COc1ccc(-c2nnc(SCC(=O)Nc3ccc(C(=O)/C=C/c4ccccc4)cc3)n2-c2ccccc2)cc1OC | 93.6
15) COC(=O)C1OC1c1cc([N+](=O)[O-])ccc1OC (stereo not given) | 96

* * *

- Tested on: M14 melanoma
- METHOD: NCI-60 one-dose screen, 48 h
- EXPERIMENTAL SETUP: 10 µM
The panel holds about 83,000 compounds, 20% with a hit somewhere; the sample as a whole holds those more often. Calls of active or inactive are those of the source. Rule for the calls: active = growth percent below 10; inactive = the rest.
Outcomes: active, inactive

1. Cc1c2cnccc2c(C)c2c1oc1ccccc12 | inactive
2. O=C(/C=C/c1cccc(B(O)O)c1)c1cccc(B(O)O)c1 | active
3. COc1ccc(-c2cc(-c3ccccc3)nc(SCCCC(=O)NO)n2)cc1 | active
4. O=c1c(Br)ccc(Br)cc1Br | active
5. COc1cccc(CNc2cccc3cn[nH]c23)c1O | inactive
6. COc1cc(-c2nn(-c3cccc(NC(=O)NCCNC(=O)c4cccc(C(F)(F)F)c4)c3)cc2-c2ccncc2)ccc1Cl | inactive
7. C(=N\Nc1ncnc2sc3c(c12)CCNC3)/c1cccc2ccccc12 | inactive
8. COc1cc(Cc2cc(-c3ccccc3)n[nH]c2=O)cc(OC)c1OC | inactive
9. O=C(CSc1nnc(-c2ccc(Cl)cc2)o1)Nc1ccc(C(=O)/C=C/c2ccc(Cl)cc2)cc1 | inactive
10. Cc1ccc(NC(=O)N2CCCCC2)cc1[N+](=O)[O-] | inactive
11. CCN(CC)CCNc1ccc(C)c2sc3cc(Cl)ccc3c(=O)c12 | active
12. Cn1cnc([N+](=O)[O-])c1/C=C1\Oc2ccc(Br)cc2C1=O | inactive
13. COc1cc(/C=C2\CCCC3C2=Nc2ccccc2NC3c2cc(OC)c(OC)c(OC)c2)cc(OC)c1OC (configuration not stated) | active
14. COc1ccc(C2CC(c3cc(OC)c(OC)c(OC)c3)=NN2)cc1 (configuration not stated) | inactive
15. CC(C)(C)OC(=O)CN1CCc2c(sc3ncnc(N/N=C/c4ccccc4Br)c23)C1 | inactive
16. CN1CCc2c(sc3nc4n(-c5ccc(Cl)cc5)c(=O)[nH]n4c(=O)c23)C1 | inactive
17. COc1cc(/C=C2\CCCC3=C2N=C2SC(C)=CN2C3c2cc(OC)c(OC)c(OC)c2)cc(OC)c1OC (configuration not stated) | active
18. COc1ccccc1-n1c(-c2sc(NC(C)=O)nc2C)n[nH]c1=S | inactive
19. CC1OC2CC(=O)OC2C2=C1C(=O)c1c(O)c3c(c(O)c1C2=O)C1CC(O)C3(O)C(C)O1 (configuration not stated) | active
20. Cc1ccc(C(SCC(N)C(=O)O)(c2ccc(C)cc2)c2ccc(C)cc2)cc1 (configuration not stated) | active
21. Cc1c2c[n+](C(C)C)ccc2c(C)c2c1[nH]c1ccccc12 | inactive
22. NC1=NC(c2ccccc2)C2=C(N1)/C(=C/c1ccccc1)CCC2 (configuration not stated) | inactive

* * *

- System: NCI/ADR-RES ovarian
- METHOD: NCI-60 one-dose screen, 48 h (100 = growth as untreated, 0 = no growth, -100 = all killed)
- EXPERIMENTAL SETUP: 10 µM
About 83,000 compounds went through this panel and 20% of them were active in at least one assay; those are over-represented in the sample as a whole.
MEASURED PROPERTY: growth (%)

1) CCOC(=O)c1cc(C(=O)c2cc(OC)c(OC)c(OC)c2)n2nc(C)ccc12 | 20.9
2) COc1cc(/C=C/c2cc(/C=C/c3ccc(O)c(OC)c3)n(C(=O)Nc3ccccc3Cl)n2)ccc1O | 20.8
3) COc1ccc2c(c1)CC=C1[C@@H]2CC[C@]2(C)C(=O)/C(=N/O)C[C@@H]12 | 90.3
4) COc1ccc(-c2cc(-c3ccc(Cl)cc3)nc(SCCCC(=O)NO)n2)cc1OC | -30.6
5) O=C(NCCCNS(=O)(=O)c1ccc(Cl)cc1)Nc1ccc(-n2cc(-c3ccncc3)c(-c3ccc(Cl)c(O)c3)n2)cc1 | 76.8
6) CC(=O)[C@H]1CC[C@]2(C)[C@@H]1CC[C@@H]1[C@@]3(C)CC(CCC#N)(CCC#N)C(=O)C(C)(C)[C@@H]3CC[C@]12C | 90.5
7) Cc1ccc(NC(=S)NNC(=S)Nc2ccc(C)cc2)cc1 | 31.7
8) CS(=O)(=O)c1nccc(-c2c(-c3cccc(OCCN4CCOCC4)c3)nc3sccn23)n1 | 93.3
9) COc1cc(C(=O)/C=C/c2c[nH]c3ccccc23)cc(OC)c1OC | 9.93

* * *

- System: T-47D breast
- METHOD: NCI-60 one-dose screen, 48 h
- EXPERIMENTAL SETUP: 10 µM
The panel holds about 83,000 compounds, 20% with a hit somewhere; the sample as a whole holds those more often. Activity calls are given as the source filed them. How the source made its calls: active means growth percent below 10; inactive means the rest.
Outcomes: active, inactive

1) CC(=O)COc1ccc(Cl)cc1Cl | inactive
2) O=C(Nc1cc(Cl)cc2c1-c1ccc(Cl)cc1C2O)C(Cl)Cl (stereo unspecified) | inactive
3) COc1cc2cc(Oc3ccc(NC(=O)Nc4cccc(C(F)(F)F)c4)cc3)c(C)nc2cc1OC | inactive
4) CC[N+](CC)=c1ccc2nc3c(cc(NCc4ccccc4)c4ccccc43)oc-2c1 | active
5) Fc1ccc(C(c2ccc(F)cc2)C(Cl)Cl)cc1 | inactive
6) COc1cccc2ccc(CC(O)(c3ccccc3)c3ccccc3)nc12 | inactive
